Test: in vitro
Conditions: human
measure: GI50 (µM)

sample smiles	reported
COc1cccc2c1C(=O)c1c(O)c3c(c(O)c1C2=O)C[C@@](O)(C(=O)COC(=O)c1ccc(-c2ssc(=S)c2-c2ccccc2)cc1)C[C@@H]3O[C@H]1C[C@H](N)[C@H](O)[C@H](C)O1	3.02

====

Tested on: SW1573
Test: In vitro P-gp assay: antiproliferative activity in wild-type SW1573 cells
Assay type: cell-based
Settings: Homo sapiens, SW1573, 48 h
measure: GI50 (nM)

sample smiles	reported
COc1cc2c(c(OC)c1OC)-c1ccc(OC)c(=O)cc1[C@@H](NC(C)=O)CC2	67
CC(=O)O[C@H]1C(=O)[C@@]2(C)[C@H]([C@H](OC(=O)c3ccccc3)[C@]3(O)C[C@H](OC(=O)[C@H](O)[C@@H](NC(=O)c4ccccc4)c4ccccc4)C(C)=C1C3(C)C)[C@]1(OC(C)=O)CO[C@@H]1C[C@@H]2O	0.53
COc1cccc2c1C(=O)c1c(O)c3c(c(O)c1C2=O)C[C@@](O)(C(=O)CO)C[C@@H]3O[C@H]1C[C@H](N)[C@H](O)[C@H](C)O1	70
COc1cccc2c1C(=O)c1c(O)c3c(c(O)c1C2=O)C[C@@](O)(C(=O)COC(=O)c1ccc(-c2ssc(=S)c2-c2ccccc2)cc1)C[C@@H]3O[C@H]1C[C@H](N)[C@H](O)[C@H](C)O1	873
CC[C@]1(O)C[C@@H]2CN(CCc3c([nH]c4ccccc34)[C@@](C(=O)OC)(c3cc4c(cc3OC)N(C)[C@H]3[C@@](O)(C(=O)OC)[C@H](OC(C)=O)[C@]5(CC)C=CCN6CC[C@]43[C@@H]65)C2)C1	0.94

====

Biological target: recombinant human CYP3A4 (Homo sapiens)
Sequence (P08684 whole entry): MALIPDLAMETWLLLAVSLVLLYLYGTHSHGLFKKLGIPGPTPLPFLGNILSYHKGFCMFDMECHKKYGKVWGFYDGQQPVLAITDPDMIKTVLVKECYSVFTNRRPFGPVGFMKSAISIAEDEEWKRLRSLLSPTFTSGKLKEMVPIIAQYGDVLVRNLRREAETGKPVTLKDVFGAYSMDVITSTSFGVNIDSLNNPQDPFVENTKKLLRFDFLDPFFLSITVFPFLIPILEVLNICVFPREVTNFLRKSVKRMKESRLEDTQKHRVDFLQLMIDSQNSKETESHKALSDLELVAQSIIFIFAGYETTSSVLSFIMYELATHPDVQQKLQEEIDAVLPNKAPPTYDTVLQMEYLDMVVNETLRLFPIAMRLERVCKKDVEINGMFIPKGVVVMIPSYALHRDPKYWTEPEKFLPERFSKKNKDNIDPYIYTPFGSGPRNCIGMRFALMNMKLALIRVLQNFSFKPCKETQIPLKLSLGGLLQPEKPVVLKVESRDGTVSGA
Assay: In vitro inhibition of human CYP3A4
measure: IC50 (µM)

sample smiles	measure	reported
COc1cccc2c1C(=O)c1c(O)c3c(c(O)c1C2=O)C[C@@](O)(C(=O)COC(=O)c1ccc(-c2ssc(=S)c2-c2ccccc2)cc1)C[C@@H]3O[C@H]1C[C@H](N)[C@H](O)[C@H](C)O1	IC50	3.1

====

Form field: GI50 at 48 h (one value per entry).
Assay: In vitro P-gp assay: antiproliferative activity in P-gp-overexpressing SW1573/P-gp cells
Details: human

sample smiles	GI50 at 48 h / nM
COc1cc2c(c(OC)c1OC)-c1ccc(OC)c(=O)cc1[C@@H](NC(C)=O)CC2	2370
COc1cccc2c1C(=O)c1c(O)c3c(c(O)c1C2=O)C[C@@](O)(C(=O)CO)C[C@@H]3O[C@H]1C[C@H](N)[C@H](O)[C@H](C)O1	1600
CC[C@]1(O)C[C@@H]2CN(CCc3c([nH]c4ccccc34)[C@@](C(=O)OC)(c3cc4c(cc3OC)N(C)[C@H]3[C@@](O)(C(=O)OC)[C@H](OC(C)=O)[C@]5(CC)C=CCN6CC[C@]43[C@@H]65)C2)C1	16
CC(=O)O[C@H]1C(=O)[C@@]2(C)[C@H]([C@H](OC(=O)c3ccccc3)[C@]3(O)C[C@H](OC(=O)[C@H](O)[C@@H](NC(=O)c4ccccc4)c4ccccc4)C(C)=C1C3(C)C)[C@]1(OC(C)=O)CO[C@@H]1C[C@@H]2O	298

These data points were gathered from paper PMC8936434.
